- study-target: Transforming acidic coiled-coil-containing protein 3 (Homo sapiens) (UniProt Q9Y6A5)
- assay-comment: inhibitors of ARNT PAS-B binding to TACC3 – biochemical, AlphaScreen, single concentration, primary screen (AID 623870);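 note: 0% = complete ARNT plus TACC3 wells and 100% = ARNT alone without TACC3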
- assay-conditions: AlphaScreen His-ARNT PAS-B/GST-TACC3 binding, luminescence; at 9.99 µM; stronger effect = higher value; TACC3 fragment carries E629A point mutation
Among all 390,000 compounds or so, about 2,600 (0.67%) were called active. The list comes from a sample in which actives are over-represented; it also holds close analogues and randomly drawn compounds.
observation-type: inhibition (%)
Answers are plain numbers, in %.

Solved entries:
>>> print(df.to_string())
                                chem_smiles                              study_target  observation_type  observed
0  Cc1ccc(S(=O)(=O)N(C)C[C@@H]2Oc3c(NC(=O)c4nc5ccccc5s4)cccc3C(=O)N([C@H](C)CO)C[C@@H]2C)cc1  Transforming acidic coiled-coil-containing protein 3 (Homo sapiens) (UniProt Q9Y6A5)        inhibition      9.91
1  Cc1noc(C)c1NC(=O)Nc1ccc2c(c1)C(=O)N([C@H](C)CO)C[C@H](C)[C@H](CN(C)Cc1ccc(C(=O)O)cc1)OCCCC[C@H](C)O2  Transforming acidic coiled-coil-containing protein 3 (Homo sapiens) (UniProt Q9Y6A5)        inhibition     -1.31

From here, focus on the item given below.
Query: Find the recorded inhibition belonging to `C[C@@H]1CCCCO[C@H](CN(C)Cc2ccc(Cl)c(Cl)c2)[C@H](C)CN([C@@H](C)CO)C(=O)c2cc(NC(=O)C3CCCCC3)ccc2O1` and report it.
Reply: -6.84

====

- study-target: Transforming acidic coiled-coil-containing protein 3 (Homo sapiens)
- assay-comment: inhibitors of ARNT PAS-B binding to TACC3 – biochemical, AlphaScreen, single concentration, primary screen (AID 623870);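 note: 0% = complete ARNT plus TACC3 wells and 100% = ARNT alone without TACC3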
- assay-conditions: AlphaScreen His-ARNT PAS-B/GST-TACC3 binding, luminescence; at 9.99 µM; stronger effect = higher value; TACC3 fragment carries E629A point mutation
Hit rate of the full screen: of about 390,000 compounds, about 2,600 (0.67%) were called active. Only a selection was taken, and actives are over-represented in it overall.
Would you kindly list inhibition for each of these compounds?
Numbers only, in %.

In [3]: df
Out[3]:
                                chem_smiles  unit_symbol  observed
0  COc1ccc(NC(=O)N(C)C[C@@H]2Oc3c(NC(=O)C4CCOCC4)cccc3C(=O)N([C@H](C)CO)C[C@@H]2C)cc1            %      26.5
1  COc1ccc(S(=O)(=O)N(C)C[C@H]2Oc3ccc(NC(=O)CCC(F)(F)F)cc3CC(=O)N([C@H](C)CO)C[C@@H]2C)cc1            %      14.1

The following compounds each have a reported value; give each one's inhibition.
1. Cc1ccccc1Nc1nc(N)nc(CSc2nnc3ccccn23)n1
2. CC(C)NC(=O)N[C@H]1CC[C@H](CC(=O)NCCCN(C)C)O[C@H]1CO
3. CCS(=O)(=O)Nc1ccc2c(c1)C(=O)N(C)[C@@H]1CC[C@H](CC(=O)N[C@H]3CCN(Cc4ccccc4)C3)O[C@@H]1CO2
4. Cc1ccc(NC(=O)CNCc2ccccn2)cc1S(=O)(=O)N(C)C
5. COc1ccc2ccccc2c1CNCc1ccccn1
6. COc1cccc(S(=O)(=O)N[C@H]2CC[C@H](CCN)O[C@H]2CO)c1

Reply:
[-0.395, -5.48, 4.57, 71, 55.2, 0.015]

The following compounds each have a reported value; give each one's inhibition.
1. Nc1nnnn1/N=C/c1cccc(Br)c1
2. Cc1ccc(C(=O)Nc2ccc(C)c(S(=O)(=O)N(C)C)c2)s1
3. C[C@@H]1CN([C@@H](C)CO)C(=O)Cc2cc(NC(=O)Nc3ccc(F)cc3)ccc2O[C@@H]1CN(C)C(=O)NC1CCCCC1

Reply:
1: 3.65; 2: -4.57; 3: 0.811

The following compounds each have a reported value; give each one's inhibition.
1. Cc1ccccc1Nc1nc(N)nc(CN2CCN(c3ccccn3)CC2)n1
2. COc1ccc(-c2ccc(CNCCCN3CCOCC3)o2)cc1Cl
3. O=C(NCCCn1ccnc1)c1cc(-c2ccccc2)on1
4. Nc1nnnn1/N=C/c1cc([N+](=O)[O-])ccc1O
5. O=C(C[C@@H]1CC[C@H]2[C@@H](COC[C@H](O)CN2C(=O)Nc2ccc(Cl)cc2)O1)NCC1CC1
6. C[C@H](CO)N1C[C@H](C)[C@@H](CN(C)Cc2ccc(-c3ccccc3)cc2)Oc2ccc(NC(=O)CCCN(C)C)cc2CC1=O
7. Clc1ccc(-c2cc(COc3ccccc3)no2)cc1Cl
8. O=C([C@H]1[C@H](CO)[C@H]2Cn3c(ccc(-c4ccccc4)c3=O)[C@@H]1N2Cc1cccnc1)N1CCOCC1

Reply:
1. 86
2. 2.81
3. 1.74
4. 75.7
5. -0.418
6. 31.9
7. 1.19
8. 42.2

Query: Find the recorded inhibition belonging to `Fc1ccc(-c2ccc(CNCc3ccccn3)o2)cc1Cl` and report it.
Reply: 59.1

====

Would you kindly list inhibition for each of these compounds?
- study-target: Transforming acidic coiled-coil-containing protein 3 (Homo sapiens) (UniProt Q9Y6A5)
- assay-comment: inhibitors of ARNT PAS-B binding to TACC3 – biochemical, AlphaScreen, single concentration, primary screen (AID 623870);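 note: 0% = complete ARNT plus TACC3 wells and 100% = ARNT alone without TACC3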
- assay-conditions: AlphaScreen His-ARNT PAS-B/GST-TACC3 binding, luminescence; at 9.99 µM; stronger effect = higher value; TACC3 fragment carries E629A point mutation
The campaign covered roughly 390,000 compounds. About 2,600 (0.67%) were called active. For the sample, actives were picked, then their nearest neighbours and some compounds at random.
Give bare numbers, in %.

Solved entries:
>>> df
                                   compound  observed
0  Cc1ccc(S(=O)(=O)n2oc(=O)c(C3CCCCC3)c2N)cc1      64.1
1  CC(C)NC(=O)N(C)C[C@H]1OCCCC[C@H](C)Oc2ccc(NC(=O)CCCN(C)C)cc2C(=O)N([C@@H](C)CO)C[C@H]1C    -0.512
2  Cc1ccc(S(=O)(=O)N2CC(C)N(S(C)(=O)=O)C2)cc1 (centres undefined)    -0.994
3  CCN(C[C@H]1[C@H](c2ccc(-c3ccccc3)cc2)[C@H](CO)N1CC1CC1)C(C)=O      2.62
4  Cc1ccc(S(=O)(=O)N2CCCC2CO)cc1 (centres undefined)     -6.07
5          O=C(NCc1cccnc1)c1nc(-c2cccs2)no1     -5.94
6  COC(=O)C1=C(C)NC2=C(C(=O)c3ccccc32)C1c1ccc(-c2ccc(C(=O)O)cc2)o1 (centres undefined)      65.4
7  C[C@H]1CN([C@@H](C)CO)C(=O)Cc2cc(NC(=O)Nc3ccc(F)cc3)ccc2O[C@H]1CN(C)S(=O)(=O)c1ccc(F)cc1    -0.385

Query: Find the recorded inhibition belonging to `O=C(C[C@@H]1C[C@@H]2c3cc(NS(=O)(=O)c4ccc(F)cc4)ccc3O[C@@H]2[C@H](CO)O1)NCc1ccccc1F` and report it.
Reply: -1.77

====

- study-target: Transforming acidic coiled-coil-containing protein 3 (Homo sapiens) (UniProt Q9Y6A5)
- assay-comment: inhibitors of ARNT PAS-B binding to TACC3 – biochemical, AlphaScreen, single concentration, primary screen (AID 623870);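 note: 0% = complete ARNT plus TACC3 wells and 100% = ARNT alone without TACC3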
- assay-conditions: AlphaScreen His-ARNT PAS-B/GST-TACC3 binding, luminescence; at 9.99 µM; stronger effect = higher value; TACC3 fragment carries E629A point mutation
In all, about 390,000 compounds went through this assay and about 2,600 (0.67%) were called active. The full list was thinned out, with actives kept by preference.
observation-type: inhibition (%)
Answers are plain numbers, in %.

Solved entries:
>>> df
                                   compound  observation_type  unit_symbol  observed
0  COc1c(O)ccc2c1CN1CCc3cc4c(cc3C1C2)OCO4 (stereo not drawn)        inhibition            %      59.9
1  COc1ccccc1-c1ccc([C@@H]2[C@@H](CO)N3CCCCN(C(=O)c4ccncc4)C[C@@H]23)cc1        inhibition            %    -0.716
2  COc1ccc(C(=O)Nc2ccc3c(c2)C(=O)N(C)C[C@@H](OC)[C@H](C)CN(C(C)=O)[C@@H](C)CO3)cc1        inhibition            %      -6.1
3  CNC[C@@H]1Oc2ccc(NC(=O)C3CCCCC3)cc2CC(=O)N([C@@H](C)CO)C[C@H]1C        inhibition            %     -6.19
4  COCC(=O)Nc1ccc2c(c1)OC[C@@H](C)N(C(=O)c1cnccn1)C[C@H](C)[C@H](OC)CN(C)C2=O        inhibition            %     -8.24

The following compounds each have a reported value; give each one's inhibition.
1. C/C=C/c1ccc([C@H]2[C@@H](CO)N(S(C)(=O)=O)[C@@H]2CN(C)C(=O)CC)cc1
2. O=C(C[C@@H]1C[C@@H]2c3cc(NC(=O)C4CCC4)ccc3O[C@@H]2[C@@H](CO)O1)NCc1ccccc1
3. COc1cc(C2c3cc4c(cc3C(O)C3COC(=O)C23)OCO4)cc(OC)c1OC (stereo not drawn)

Reply:
[7.87, -8.97, -5.89]
